# assayed system: Phospholipase D1 (Homo sapiens) (UniProt Q13393)
# Sequence (Q13393 whole entry, looked up): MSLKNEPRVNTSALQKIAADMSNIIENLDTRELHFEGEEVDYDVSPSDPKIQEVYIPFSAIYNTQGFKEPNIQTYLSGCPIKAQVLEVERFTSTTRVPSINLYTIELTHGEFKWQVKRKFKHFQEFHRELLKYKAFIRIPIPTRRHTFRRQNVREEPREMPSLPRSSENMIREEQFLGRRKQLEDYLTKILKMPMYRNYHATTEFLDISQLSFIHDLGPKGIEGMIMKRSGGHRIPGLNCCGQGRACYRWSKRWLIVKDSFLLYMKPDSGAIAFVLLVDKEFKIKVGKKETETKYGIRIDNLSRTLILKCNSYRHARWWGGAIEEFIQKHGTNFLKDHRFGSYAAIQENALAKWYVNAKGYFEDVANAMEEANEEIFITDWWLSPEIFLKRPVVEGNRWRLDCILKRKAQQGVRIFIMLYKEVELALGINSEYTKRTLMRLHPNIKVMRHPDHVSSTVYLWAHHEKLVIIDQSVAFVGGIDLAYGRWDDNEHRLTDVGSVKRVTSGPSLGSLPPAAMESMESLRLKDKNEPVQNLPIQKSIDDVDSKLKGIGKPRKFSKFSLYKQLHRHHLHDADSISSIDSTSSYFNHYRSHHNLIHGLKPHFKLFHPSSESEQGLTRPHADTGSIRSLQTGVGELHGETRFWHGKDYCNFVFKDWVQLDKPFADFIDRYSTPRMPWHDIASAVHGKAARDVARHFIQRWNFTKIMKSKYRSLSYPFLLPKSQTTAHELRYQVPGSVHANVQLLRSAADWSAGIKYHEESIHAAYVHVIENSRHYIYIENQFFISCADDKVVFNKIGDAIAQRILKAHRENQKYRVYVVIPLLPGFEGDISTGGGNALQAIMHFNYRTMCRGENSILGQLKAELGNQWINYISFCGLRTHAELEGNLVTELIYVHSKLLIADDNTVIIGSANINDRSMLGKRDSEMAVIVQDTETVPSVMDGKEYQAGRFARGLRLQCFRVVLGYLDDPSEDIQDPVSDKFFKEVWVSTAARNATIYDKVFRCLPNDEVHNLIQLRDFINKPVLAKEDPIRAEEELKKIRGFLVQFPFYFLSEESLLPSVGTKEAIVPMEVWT
# Sequence (Q13393 whole entry, looked up): as above
# run description: PLD1 inhibitors in cells, Calu-1 cells, single concentration (AID 602144);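 further: tested at 200 nM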
# condition details: cellular PLD1 activity, active compounds read low
property measured: remaining activity (%)
// units = %; emit number, no label

Solved entries (count: 4):
# given smiles, remaining activity, %
records = [
    ("C[C@@H](CN1CCC(n2c(=O)[nH]c3ccccc32)CC1)NC(=O)c1ccc2ncccc2c1", 29.2),
    ("Cc1ccc(C(=O)NCCN2CCN(c3ccccn3)CC2)cc1", 111),
    ("O=c1[nH]c2ccccc2n1C1CCN(CCNS(=O)(=O)c2ccccc2C(F)(F)F)CC1", 94.8),
    ("O=C(CCc1ccccc1)NCCN1CCC(n2c(=O)[nH]c3ccccc32)CC1", 76.1),
]

// switching to the query compound
compound `COc1cccc(N2CCN(CCNC(=O)c3ccc(C)cc3)CC2)c1` , remaining activity observed: 84.8

* * *

Measured remaining activity values are reported for all entries that follow.
# assayed system: Phospholipase D1 (Homo sapiens) (UniProt Q13393)
# run description: PLD1 inhibitors in cells, Calu-1 cells, single concentration (AID 602144);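 further: tested at 200 nM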
# condition details: cellular PLD1 activity, active compounds read low
// units = %; emit number, no label

Solved entries (count: 2):
# compound, reported result
data = [
    ("O=C(NCCN1CCC(n2c(=O)[nH]c3ccccc32)CC1)c1cc(-c2ccccc2)no1", 62.9),
    ("O=C(c1ccc2ccccc2c1)N1CCC(n2c(=O)[nH]c3cc(Cl)ccc32)CC1", 77.3),
]

The compound `C[C@@H](CN1CC=C(n2c(=O)[nH]c3ccccc32)CC1)NC(=O)[C@H]1C[C@@H]1c1ccccc1` , tested on Phospholipase D1 (Homo sapiens) (UniProt Q13393), showed remaining activity of 15.7

The compound `CCCCS(=O)(=O)NCCN1CCC(n2c(=O)[nH]c3ccccc32)CC1` , tested on Phospholipase D1 (Homo sapiens) (UniProt Q13393), showed remaining activity of 124

The compound `C[C@@H](CN1CCC(n2c(=O)[nH]c3ccccc32)CC1)NC(=O)c1ccco1` , tested on Phospholipase D1 (Homo sapiens) (UniProt Q13393), showed remaining activity of 41.7

* * *

# assayed system: Phospholipase D1 (Homo sapiens) (UniProt Q13393)
# run description: PLD1 inhibitors in cells, Calu-1 cells, single concentration (AID 602144);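 further: tested at 200 nM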
# condition details: cellular PLD1 activity
Activity calls are given as the source filed them. Rule as the data show it: active = remaining activity below about 50%; inactive = the rest.
In this exercise, the only acceptable responses are YES for active, NO for inactive

Some solved cases for reference:
# molecule, group label
data = [
    ("O=C(NCCN1CCN(c2ccccn2)CC1)c1ccc(C(F)(F)F)cc1", "NO"),
    ("NC1(CN2CCC(c3nc4ccccc4[nH]3)CC2)CCCC1 (tested in a mixture with another compound)", "NO"),
    ("O=C(NCCN1CCC(n2c(=O)[nH]c3ccccc32)CC1)C1CCCCCC1", "NO"),
    ("O=C(NCCN1CCC(n2c(=O)[nH]c3ccccc32)CC1)Nc1ccccc1F", "NO"),
    ("O=c1[nH]c2ccccc2n1C1CCN(CCNS(=O)(=O)c2cccc(C(F)(F)F)c2)CC1", "NO"),
]

-- ask Write down the call the test reported for this molecule. Item: `O=C(NCCN1CCC(n2nnc3ccccc32)CC1)c1ccc2ccccc2c1`
-- reply YES

-- ask Write down the call the test reported for this molecule. Item: `O=C(NCCN1CCC(n2c(=O)[nH]c3ccc(F)cc32)CC1)c1cccc2c1C(=O)c1ccccc1-2`
-- reply YES

-- ask Write down the call the test reported for this molecule. Item: `COc1cc(C(=O)NCCN2CCN(c3ccncc3)CC2)ccc1N`
-- reply NO

* * *

# assayed system: Phospholipase D1 (Homo sapiens) (UniProt Q13393)
# run description: PLD1 inhibitors in cells, Calu-1 cells, single concentration (AID 602144);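 further: tested at 200 nM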
# condition details: cellular PLD1 activity, active compounds read low
Measured remaining activity values are reported for all entries that follow.
// units = %; emit number, no label

# compound, property measured, reported result
measured = [
    ("O=C(NCCN1CCC(n2c(=O)[nH]c3ccccc32)CC1)Nc1ccccc1C(F)(F)F", "remaining activity", 131),
    ("CC1(C)[C@H]2CC[C@]1(CS(=O)(=O)NCCN1CCC(n3c(=O)[nH]c4ccccc43)CC1)C(=O)C2", "remaining activity", 121),
    ("CC(C)C(=O)N[C@@H](C)CN1CCC(n2c(=O)[nH]c3ccccc32)CC1", "remaining activity", 104),
    ("CN1CCC2(CCN(CCNC(=O)[C@H]3C[C@@H]3c3ccccc3)CC2)C1=O", "remaining activity", 107),
    ("O=C(NCCN1CCC(n2c(=O)[nH]c3ccccc32)CC1)NCc1cccc(F)c1", "remaining activity", 45.6),
]

The compound `O=C(NCCN1CCC(n2c(=O)[nH]c3ccccc32)CC1)c1cccc(F)n1` , tested on Phospholipase D1 (Homo sapiens) (UniProt Q13393), showed remaining activity of 34

The compound O=C(NCCN1CCC(n2c(=O)[nH]c3ccccc32)CC1)C1CCc2ccccc2C1 (centres undefined) , tested on Phospholipase D1 (Homo sapiens) (UniProt Q13393), showed remaining activity of 77.8

The compound O=C(NCCN1CCC(n2c(=O)[nH]c3cc(I)ccc32)CC1)C1CC1c1ccccc1 (centres undefined) , tested on Phospholipase D1 (Homo sapiens) (UniProt Q13393), showed remaining activity of 16.1

The compound `O=C1c2ccccc2C(=O)N1CCCN1CCC(c2nc3ccccc3[nH]2)CC1` , tested on Phospholipase D1 (Homo sapiens) (UniProt Q13393), showed remaining activity of 95.3

* * *

Measured remaining activity values are reported for all entries that follow.
# assayed system: Phospholipase D1 (Homo sapiens)
# run description: PLD1 inhibitors in cells, Calu-1 cells, single concentration (AID 602144);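 further: tested at 200 nM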
# condition details: cellular PLD1 activity, active compounds read low
The source made the active and inactive calls. No stated cut-off is given here; in the data, active means remaining activity below about 50%; inactive means the rest.

compound `C[C@@H](CN1CCC(n2c(=O)[nH]c3ccccc32)CC1)NC(=O)c1cc2ccccc2[nH]1` , remaining activity observed: 8.14% (active)

compound C[C@H](N)CN1CCC(c2nc3ccccc3n2C)CC1 (tested in a mixture with another compound) , remaining activity observed: 88.8% (inactive)

compound `O=C(Cc1ccc2ccccc2c1)NCCN1CCC(n2c(=O)[nH]c3ccccc32)CC1` , remaining activity observed: 87.7% (inactive)

compound `C[C@@H](CN1CCC(n2c(=O)[nH]c3ccccc32)CC1)NC(=O)c1cc2ccccc2s1` , remaining activity observed: 28% (active)

* * *

Measured remaining activity values are reported for all entries that follow.
# assayed system: Phospholipase D1 (Homo sapiens)
# run description: PLD1 inhibitors in cells, Calu-1 cells, single concentration (AID 602144);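 further: tested at 200 nM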
# condition details: cellular PLD1 activity, active compounds read low
// units = %; emit number, no label

compound C[C@@H](CN1CCC(n2c(=O)[nH]c3cc(I)ccc32)CC1)NC(=O)C1CC1c1ccccc1 (some centres undefined) , remaining activity observed: 19.9

compound `O=C(NCCN1CCC2(CC1)CNCc1ccccc12)c1ccc2ccccc2c1` , remaining activity observed: 122

compound `C[C@@H](CN1CCC(n2c(=O)[nH]c3ccccc32)CC1)NC(=O)CCc1ccc(F)cc1` , remaining activity observed: 53.9

compound `O=C(c1ccc2ccccc2c1)N1CCC2(CC1)C(=O)NCN2c1ccccc1` , remaining activity observed: 113

compound O=C(C1C[C@@H]1c1ccccc1)N1CCC(n2c(=O)[nH]c3cc(Cl)ccc32)CC1 (some centres undefined) , remaining activity observed: 89.8

compound `C[C@@H](CN1CCC(n2c(=O)[nH]c3ccccc32)CC1)NC(=O)c1cc2cc(F)ccc2[nH]1` , remaining activity observed: 30.1

* * *

# assayed system: Phospholipase D1 (Homo sapiens) (UniProt Q13393)
# run description: PLD1 inhibitors in cells, Calu-1 cells, single concentration (AID 602144);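 further: tested at 200 nM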
# condition details: cellular PLD1 activity
Active and inactive are the calls of the source. Rule as the data show it: active = remaining activity below about 50%; inactive = the rest.
In this exercise, the only acceptable responses are True for active, False for inactive

# compound, group label
rows = [
    ("C[C@@H](CN1CCC(n2c(=O)[nH]c3ccc(F)cc32)CC1)NC(=O)c1ccc(F)cc1", "True"),
    ("O=C(NCCN1CC=C(n2c(=O)[nH]c3ccccc32)CC1)[C@H]1C[C@@H]1c1ccccc1", "False"),
    ("O=C1c2ccccc2C(=O)N1CCCNc1cccc(F)c1", "False"),
    ("O=c1[nH]c2ccccc2n1C1CCN(CCNS(=O)(=O)c2cccc3cccnc23)CC1", "False"),
    ("Cn1c(=O)n(C2CCN(CCNC(=O)[C@H]3C[C@@H]3c3ccccc3)CC2)c2ccccc21", "False"),
]

-- ask Write down the call the test reported for this compound. Item: `C[C@@H](CN1CCC(n2c(=O)[nH]c3ccc(F)cc32)CC1)NC(=O)c1ccc(Cl)cc1`
-- reply True

-- ask Write down the call the test reported for this compound. Item: `CC(C(=O)NCCN1CCC(n2c(=O)[nH]c3ccccc32)CC1)(c1ccccc1)c1ccccc1`
-- reply False

-- ask Write down the call the test reported for this compound. Item: `C[C@H](CN1CCC2(CC1)CNc1ccccc12)NC(=O)c1cnc2ccccc2c1`
-- reply False

-- ask Write down the call the test reported for this compound. Item: `C[C@H](CN1CCC(n2c(=O)[nH]c3cc(Cl)ccc32)CC1)NC(=O)c1cc2ccccc2[nH]1`
-- reply True

-- ask Write down the call the test reported for this compound. Item: `C[C@@H](CN1CCC(n2c(=O)[nH]c3cc(-c4ccc(F)c(F)c4)ccc32)CC1)NC(=O)[C@H]1C[C@@H]1c1ccccc1`
-- reply False

-- ask Write down the call the test reported for this compound. Item: `O=c1[nH]c2ccccc2n1C1CCN(CCNS(=O)(=O)c2ccc(Cl)cc2)CC1`
-- reply False

-- ask Write down the call the test reported for this compound. Item: `C[C@@H](CN1CCC2(C=Cc3ccccc32)CC1)NC(=O)c1ccc2ccccc2c1`
-- reply False

-- ask Write down the call the test reported for this compound. Item: `O=c1[nH]c2ccccc2n1C1CCN(CCNC(=S)Nc2ccc(Cl)c(Cl)c2)CC1`
-- reply False

-- ask Write down the call the test reported for this compound. Item: O=C(NCCN1CCC(n2c(=O)[nH]c3ccccc32)CC1)C1C=Cc2ccccc2C1 (centres undefined)
-- reply True

-- ask Write down the call the test reported for this compound. Item: `O=c1[nH]c2ccccc2n1C1CCN(CCNS(=O)(=O)c2ccc(OC(F)(F)F)cc2)CC1`
-- reply False

-- ask Write down the call the test reported for this compound. Item: `O=C(NCCN1CCC(n2c(=O)[nH]c3ccccc32)CC1)c1ccc2ccc3c4c2c1CC=C4CC=C3`
-- reply False

-- ask Write down the call the test reported for this compound. Item: `C[C@@H](CN1CCC(n2c(=O)[nH]c3ccccc32)CC1)NC(=O)Cc1cccs1`
-- reply False

-- ask Write down the call the test reported for this compound. Item: `Cc1cccc(NC(=O)NCCN2CCC(n3c(=O)[nH]c4ccccc43)CC2)c1`
-- reply False

-- ask Write down the call the test reported for this compound. Item: `Cc1ccc(C(=O)N[C@@H](C)CN2CCC(n3c(=O)[nH]c4cc(Cl)ccc43)CC2)cc1`
-- reply True
